- Tested on: Cytochrome P450 3A2 (Rattus norvegicus)
- Sequence (P05183 whole entry): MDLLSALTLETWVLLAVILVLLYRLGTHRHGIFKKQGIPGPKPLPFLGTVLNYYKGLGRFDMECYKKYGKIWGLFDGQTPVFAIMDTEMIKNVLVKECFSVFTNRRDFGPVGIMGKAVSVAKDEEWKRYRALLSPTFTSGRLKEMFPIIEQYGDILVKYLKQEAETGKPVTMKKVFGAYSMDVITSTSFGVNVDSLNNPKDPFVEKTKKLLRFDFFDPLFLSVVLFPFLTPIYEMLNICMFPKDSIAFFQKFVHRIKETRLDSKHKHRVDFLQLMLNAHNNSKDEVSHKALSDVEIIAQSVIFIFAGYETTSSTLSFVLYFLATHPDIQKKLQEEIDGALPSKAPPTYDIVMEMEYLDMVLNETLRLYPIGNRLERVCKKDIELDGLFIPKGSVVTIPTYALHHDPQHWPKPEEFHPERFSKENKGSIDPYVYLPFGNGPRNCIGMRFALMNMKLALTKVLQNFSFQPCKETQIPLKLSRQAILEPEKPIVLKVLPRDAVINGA
Attribute measured: pKi
Scale: negative log10 of molar concentration, which is what pKi denotes.

Prompt: Reported pKi, compound `CC1=C(O)C(=O)C=C2C1=CC=C1[C@@]2(C)CC[C@@]2(C)[C@@H]3C[C@](C)(C(=O)O)CC[C@]3(C)CC[C@]12C` : ____
Response: 4.85

###

- Tested on: HCC827
- Assay overview: Antiproliferative activity against human HCC827 cells assessed as cell growth inhibition
- Assay type: functional, cell-based
Attribute measured: pIC50
Scale: negative log10 of molar concentration, which is what pIC50 denotes.

Prompt: Reported pIC50, molecule CC1=C(O)C(=O)C=C2C1=CC=C1[C@@]2(C)CC[C@@]2(C)[C@@H]3C[C@](C)(C(=O)O)CC[C@]3(C)CC[C@]12C [CELASTROL] : ____
Response: 5.89
